Every entry's value here was drawn from patent US20260234150A1.

target: His6-Flag-TEV-NLRP3 (134-1036) (Homo sapiens); construct: fused on or other part: N-terminal His6 tag, Flag tag and TEV cleavage site; assay: NLRP3 fluorescence polarization (FP) binding assay, competition with probe NP3-301; conditions: competition with NP3-301 for binding to NLRP3 (134-1036), 30 nM protein
Sequence (Q96P20 134-1036 limits assumed): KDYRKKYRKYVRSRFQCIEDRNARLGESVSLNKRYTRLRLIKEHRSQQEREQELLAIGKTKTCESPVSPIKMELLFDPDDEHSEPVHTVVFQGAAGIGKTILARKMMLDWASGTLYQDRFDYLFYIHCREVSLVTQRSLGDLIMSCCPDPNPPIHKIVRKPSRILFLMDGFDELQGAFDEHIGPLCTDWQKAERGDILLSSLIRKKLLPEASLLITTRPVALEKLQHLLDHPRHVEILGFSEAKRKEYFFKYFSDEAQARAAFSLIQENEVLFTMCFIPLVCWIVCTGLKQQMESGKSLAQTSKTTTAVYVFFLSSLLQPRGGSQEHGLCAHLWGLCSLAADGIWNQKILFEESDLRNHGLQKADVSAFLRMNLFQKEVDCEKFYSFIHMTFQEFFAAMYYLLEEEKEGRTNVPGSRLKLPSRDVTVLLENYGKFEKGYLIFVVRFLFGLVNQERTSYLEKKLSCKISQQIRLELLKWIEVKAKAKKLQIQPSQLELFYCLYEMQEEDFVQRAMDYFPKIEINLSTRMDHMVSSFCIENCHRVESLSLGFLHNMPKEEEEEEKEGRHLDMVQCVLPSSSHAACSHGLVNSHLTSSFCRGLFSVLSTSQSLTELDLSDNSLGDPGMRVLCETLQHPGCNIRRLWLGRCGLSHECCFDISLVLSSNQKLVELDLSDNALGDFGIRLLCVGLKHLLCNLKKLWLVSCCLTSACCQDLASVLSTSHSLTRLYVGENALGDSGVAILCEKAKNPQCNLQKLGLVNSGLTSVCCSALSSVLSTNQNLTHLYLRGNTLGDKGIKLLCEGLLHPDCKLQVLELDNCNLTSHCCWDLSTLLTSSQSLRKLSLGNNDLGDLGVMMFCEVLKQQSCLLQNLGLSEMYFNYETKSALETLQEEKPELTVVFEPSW
pIC50: −log10 of the molar value.
Measured property: pIC50

CCN1CCC[C@H](Nc2nc3nc(-c4c(C)cc(C(F)(F)F)cc4O)cc(C)n3n2)C1 = ≥ 7.00

Proceed to the following item.
### Prompt # pIC50 lookup, item Cc1cc(C(F)(F)F)cc(O)c1-c1ccc2oc(C3CCCNC3)nc2n1 (centres unmarked)
### Response 6.30 to 7.00
